target: T1, human CD47 expressed on cells (CD47 expressing CHO cells, Jurkat, HL60, DLD1, Raji) (human, UniProt Q08722 19-292); assay: flow cytometry on CD47 expressing CHO cells, MFI (FL-4)
T1 construct: also called CHO-CD47; IAP
TEST_READOUT: EC50 (read off the curve)

Problem: # input binder: Positive 3 (analogue antibody) (antibody, V domains shown) VH: QMQLVQSGAEVKKTGSSVKVSCKASGFNIKDYYLHWVRQAPGQALEWMGWIDPDQGDTEYAQKFQDRVTITRDRSMSTAYMELSSLRSEDTAMYYCNAAYGSSSYPMDYWGQGTTVTV VL: NIQMTQSPSAMSASVGDRVTITCKASQDIHRYLSWFQQKPGKVPKHLIYRANRLVSGVPSRFSGSGSGTEFTLTISSLQPEDFATYYCLQYDEFPYTFGGGTKVEIK ; wanted: its EC50 (read off the curve)
Solution: ~1 nM
